Data origin: patent US20030212123A1

# Lookup of reported IC50 keyed by entry
Target: canine COX-2 (Canis lupus familiaris)
Construct: host or cells: DH82 canine histocytoma cells, LPS-treated overnight
Test: Canine COX-2 activity: LPS-treated DH82 canine histocytoma cells, PGE2 by EIA
Type: cell-based, dog
The reply should be a number in nM, with the unit left off.

These solved cases illustrate the format of a correct answer.
• Cc1cccc(Nc2ccccc2C(=O)O)c1C [Mefenamic acid] = 36.2
• CS(=O)(=O)Nc1ccc([N+](=O)[O-])cc1Oc1ccccc1 [Nimesulide, 4′-nitro-2′-phenoxymethanesulfonanilide] = 56.5
• COc1ccc2cc(C(C)C(=O)O)ccc2c1 (centres unmarked) [Naproxen] = 626

Let us move to another entry and its IC50.
Sure, the documented IC50 for CC(C(=O)O)c1ccc2c(c1)[nH]c1ccc(Cl)cc12 (racemic) [Carprofen (rac.)] is 102

* * *

Target: canine COX-2 (Canis lupus familiaris, UniProt Q8SPQ9)
Construct: host or cells: DH82 canine histocytoma cells, LPS-treated overnight
Sequence (Q8SPQ9 18-604): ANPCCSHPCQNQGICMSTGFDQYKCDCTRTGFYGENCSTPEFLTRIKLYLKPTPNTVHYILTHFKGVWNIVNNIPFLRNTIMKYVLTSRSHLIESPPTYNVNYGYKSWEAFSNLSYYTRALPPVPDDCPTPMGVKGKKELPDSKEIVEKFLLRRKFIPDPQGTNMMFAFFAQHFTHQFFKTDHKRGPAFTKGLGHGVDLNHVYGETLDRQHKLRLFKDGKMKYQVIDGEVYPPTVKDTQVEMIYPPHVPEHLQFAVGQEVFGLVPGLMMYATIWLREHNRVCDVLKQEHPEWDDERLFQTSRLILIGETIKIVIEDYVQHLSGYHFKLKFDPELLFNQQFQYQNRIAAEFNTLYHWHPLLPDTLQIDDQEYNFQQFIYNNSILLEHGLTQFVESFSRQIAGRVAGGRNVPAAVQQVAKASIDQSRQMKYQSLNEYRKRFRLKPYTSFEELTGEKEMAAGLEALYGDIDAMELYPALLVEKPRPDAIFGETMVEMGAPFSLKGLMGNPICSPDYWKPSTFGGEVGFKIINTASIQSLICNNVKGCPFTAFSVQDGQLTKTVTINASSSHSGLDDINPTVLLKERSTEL
Assay: Canine COX-2 activity: LPS-treated DH82 canine histocytoma cells, PGE2 by EIA
Assay type: cell-based, dog
PROPERTY_LABEL: pIC50
# pIC50 = -log10(concentration in molar units)

• CC(C(=O)O)c1cccc(C(=O)c2ccccc2)c1 (stereo not drawn) [Ketoprofen, 3-benzoyl-α-methyl-benzeneacetic acid] = 6.91
• C[C@@H](C(=O)O)c1ccc2c(c1)[nH]c1ccc(Cl)cc12 [Carprofen (R-)] = 5.22
• C[C@H](C(=O)O)c1ccc2c(c1)[nH]c1ccc(Cl)cc12 [Carprofen (S-)] = 7.43

Let us move to another entry and its pIC50.
Sure, the documented pIC50 for CCc1cccc2c3c([nH]c12)C(CC)(CC(=O)O)OCC3 (stereo not shown) [Etodolac] is 5.59

* * *

Assay: Total plasma carprofen concentration by chiral HPLC, Example 3
Assay type: in vivo, dog
Conditions: dog, plasma, oral, 4 mg/kg, 4 mg/kg PO tablet, 4-hour, individual dogs
PROPERTY_LABEL: concentration at 4 h (ng/mL)
The reply should be a number in ng/mL, with the unit left off.

Sure, the documented concentration at 4 h for CC(C(=O)O)c1ccc2c(c1)[nH]c1ccc(Cl)cc12 (racemic) [Carprofen (rac.)] is 29100
